# System: K103N/Y181C (HIV-1 double mutant strain)
# experiment_description: EC50 assay, K103N/Y181C strain
# Assay type: cell-based
# condition_context: Human immunodeficiency virus 1, read-out: EC50 K103N/Y181C (nM), K103N/Y181C double mutant
observation_type: EC50

Sample records with EC50:
CCN1c2ncc(CCOc3ccc4cc(C(=O)NC(C)(C)C(=O)O)ccc4c3)cc2C(=O)N(C)c2cccnc21    100 to 1000 nM
CCN1c2ncc(CCOc3ccc(C(=O)O)c4c3CCN(S(=O)(=O)N(C)C)C4)cc2C(=O)N(C)c2cccnc21    < 100 nM
CCN1c2ncc(CCOc3ccc(C(=O)O)c4c3CCN(C(=O)OC(C)(C)C)C4)cc2C(=O)N(C)c2cccnc21    < 100 nM

(Q) Reported EC50, compound CCN1c2ncc(CCOc3ccc(CCC(=O)O)c4ccccc34)cc2C(=O)Nc2c(C)cc(Cl)nc21 : ____
(A) 100 to 1000 nM

(Q) Reported EC50, compound CCN1c2ncc(CCOc3ccc(/C=C/C(=O)O)c4ccccc34)cc2C(=O)N(C)c2ccc(Cl)nc21 : ____
(A) < 100 nM

====

# assayed_target: Y188L mutant RT (HIV-1 RT) (Human immunodeficiency virus type 1 group M subtype B, UniProt P03366, Y787L)
# Construct: mutations that occur in the reverse transcriptase segment of the pol gene
# experiment_description: biochemical
# condition_context: IC50 Y188L (nM)
Measured IC50 accompanies every entry in the list below.

C=C(CC(=O)O)c1ccc(OCCc2cnc3c(c2)C(=O)N(C)c2cccnc2N3CC)c2ccccc12    > 1000 nM
CCN1c2ncc(CCOc3ccc(/C=C/C(=O)O)c4ccccc34)cc2C(=O)N(C)c2ccc(C)nc21 [Entry 2017]    > 1000 nM
CCN1c2ncc(CCOc3ccc(/C=C(\C)C(=O)O)c4ccccc34)cc2C(=O)N(C)c2ccc(C)nc21    > 1000 nM
CCN1c2ncc(CCOc3ccc(/C=C(\C)C(=O)O)c4ccccc34)cc2C(=O)N(C)c2ccc(F)nc21    > 1000 nM
CCN1c2ncc(CCOc3ccc(C(=O)O)c4c3CCN(S(C)(=O)=O)C4)cc2C(=O)N(C)c2cccnc21    100 to 1000 nM

(Q) Reported IC50, molecule CCN1c2ncc(CCOc3ccc(CC(=O)O)c4c3CCCC4)cc2C(=O)N(C)c2ccc(F)nc21 : ____
(A) > 1000 nM

(Q) Reported IC50, molecule CCN1c2ncc(CCOc3ccc(C(=O)O)c4c3CCCC4)cc2C(=O)N(C)c2ccc(C)nc21 : ____
(A) 100 to 1000 nM

(Q) Reported IC50, molecule CCN1c2ncc(CCOc3ccc(/C=C/C(=O)O)c4ccccc34)cc2C(=O)N(C)c2ccc(Cl)nc21 : ____
(A) 100 to 1000 nM

(Q) Reported IC50, molecule CCN1c2ncc(CCOc3ccc(CC(C)C(=O)O)c4ccccc34)cc2C(=O)Nc2c(C)ccnc21 (stereo not drawn) : ____
(A) > 1000 nM

(Q) Reported IC50, molecule CCN1c2ncc(CCOc3ccc(C(C)C(=O)O)c4ccccc34)cc2C(=O)N(C)c2cccnc21 (stereo not drawn) : ____
(A) > 1000 nM

(Q) Reported IC50, molecule CCN1c2ncc(CCOc3ccc(CC(=O)NN)c4ccccc34)cc2C(=O)N(C)c2ccc(Cl)nc21 : ____
(A) 100 to 1000 nM

(Q) Reported IC50, molecule CCN1c2ncc(CCOc3ccc(CC(C)C(=O)O)c4ccccc34)cc2C(=O)N(C)c2ccc(Cl)nc21 (stereo not drawn) : ____
(A) > 1000 nM

(Q) Reported IC50, molecule CCN1c2ncc(CCOc3ccc(CC(=O)O)c4ccccc34)cc2C(=O)Nc2c(C)cc(F)nc21 : ____
(A) > 1000 nM

(Q) Reported IC50, molecule CCN1c2ncc(CCOc3ccc4cc(C(=O)NC(C)(C)C(=O)O)ccc4c3)cc2C(=O)N(C)c2cccnc21 : ____
(A) > 1000 nM

(Q) Reported IC50, molecule CCN1c2ncc(CCOc3ccc(CC(=O)O)c4ccccc34)cc2C(=O)N(C)c2ccc(F)nc21 : ____
(A) > 1000 nM

(Q) Reported IC50, molecule CCN1c2ncc(CCOc3ccc(CCC(=O)O)c4ccccc34)cc2C(=O)N(C)c2cccnc21 : ____
(A) > 1000 nM

(Q) Reported IC50, molecule CCN1c2ncc(CCOc3ccc4cc(CC(=O)O)ccc4c3)cc2C(=O)N(C)c2cccnc21 : ____
(A) > 1000 nM

(Q) Reported IC50, molecule CCN1c2ncc(CCOc3ccc(C(=O)O)c4c3CCCC4)cc2C(=O)N(C)c2ccc(OC)nc21 : ____
(A) 100 to 1000 nM

(Q) Reported IC50, molecule CCN1c2ncc(CCOc3ccc(C(=O)O)c4c3CCN(S(=O)(=O)N(C)C)C4)cc2C(=O)N(C)c2cccnc21 : ____
(A) 100 to 1000 nM

Source: patent US6673791B2
